Where do these numbers come from? They come from the supplement of paper PMC10338343.

System: EfPiwi piRISC loaded with L1MC piRNA (26 nt)
Assay: pre-steady-state target cleavage rate (min^-1); auxiliary factor: 500 nM Ephydatia muelleri Gtsf1; guide: L1MC piRNA 5'p-UAACUAAAUACUAUGCAAGCUGUAGG; MIWI and MILI are mouse PIWI proteins and EfPiwi is from a freshwater sponge; tags in brackets are library labels; higher = faster piRNA-guided slicing of the target
outcomeMeasure: pre-steady-state target cleavage rate
Give bare numbers.

These solved cases illustrate the format of a correct answer.
UCCUGGAUGUCCUCGCAUAGUAUUUAGUUA | 0.00388
UCCUGGAUCAGCUUCCAAAGUAUUUAGUUA | 0.00404

Could you now consider this next sequence?
I would be grateful if you could share the reported pre-steady-state target cleavage rate for "UCCUGCUACAGCUAGCAUAGUAUUUAGAUA" .
0.00409
